Target: recombinant DYRK1A kinase (Homo sapiens (Human), UniProt Q13627)
Test: DYRK1A kinase assay (Ser/Thr 18 peptide Z-lyte FRET);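 also: Read-out is the coumarin to fluorescein emission ratio, referenced to unphosphorylated (0%) and phosphorylated (100%) Ser/Thr 18 peptide controls, values from dose-response curves by non-linear regression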
Type: biochemical
Conditions: 30 μM ATP, 1 h room temperature
Overview of reported pEC50 across a group of compounds:
pEC50 here is simply -log10 of the concentration when that concentration is written in mol/L.

# compound, data_value
measured = [
    ("COCCN1CCC(C(=O)Nc2cc3cc(-c4cncn4C)ccc3cn2)CC1", 8.47),
    ("C[C@@H](C(=O)Nc1cc2cc(-c3cnn(C)c3)ccc2cn1)N1CCCC1", 7.43),
    ("O=C(CN1CCCCC1)Nc1cc2cc(-c3cncs3)ccc2cn1", 8.42),
    ("COC1CCN(CC(=O)Nc2cc3cc(-c4cnn(C)c4)ccc3cn2)CC1", 8.35),
    ("Cn1cc(-c2ccc3cnc(NC(=O)CN4CC[C@H](F)C4)cc3c2)cn1", 8.21),
    ("Cn1cc(-c2ccc3cnc(NC(=O)[C@H]4CC[C@H](CN5CC(F)C5)CC4)cc3c2)cn1", 8.89),
]

Record `Cc1ncc(-c2ccc3cnc(NC(=O)CN4CCN(C)CC4)cc3c2)s1` ; system recombinant DYRK1A kinase (Homo sapiens (Human), UniProt Q13627); pEC50 = 7.88

Given the compound `Cn1cc(-c2cc(F)c3cnc(NC(=O)C4CCNCC4)cc3c2)cn1` and test system recombinant DYRK1A kinase (Homo sapiens (Human), UniProt Q13627), the measured pEC50 is 7.97

Bench note, recombinant DYRK1A kinase (Homo sapiens (Human), UniProt Q13627): `CC(C)CN1CCC(C(=O)Nc2cc3cc(-c4cnn(C)c4)c(F)cc3cn2)CC1` , pEC50 reads 8.51

----------
Test system: Tau phosphorylation at Ser396 (pSer396)
Experiment: Tau phosphorylation assay (pSer396 ELISA / western blot) in SH-SY5Y cells
Assay type: cell-based, human
Conditions: Homo sapiens; SH-SY5Y cells, overnight (16-18 h) exposure; read-out: pSer396 Tau EC50
measured_quantity: log10 EC50 (log10 of the value in nM)
Scale type: logarithmic (base 10). Underlying EC50 unit: nM.

// below: answered compounds
# compound, data_value
measured = [
    ("C[C@@H]1CN(CC(=O)Nc2cc3cc(-c4cnn(C)c4)ccc3cn2)C[C@H](C)O1 [Compound 344]", 3.54),
    ("Cc1nnc(-c2ccc3cnc(NC(=O)CN4CC5CCC(C4)O5)cc3c2)s1 [Compound 1029]", 2.38),
    ("Cn1cc(-c2ccc3cnc(NC(=O)C4CCN(C5CC5)CC4)cc3c2)cn1 [Compound 76]", 2.34),
    ("Cn1cncc1-c1ccc2cnc(NC(=O)[C@H]3CC[C@H](CO)CC3)cc2c1 [Compound 531]", 2.16),
]

# input for lookup
The reported Tau phosphorylation at Ser396 (pSer396) log10 EC50 of CC(F)(F)CN1CCC(C(=O)Nc2cc3cc(-c4cnco4)ccc3cn2)CC1 [Compound 1057] is 2.53

----------
System: Tau phosphorylation at Ser396 (pSer396)
Experiment: Tau phosphorylation assay (pSer396 ELISA / western blot) in SH-SY5Y cells
Type: cell-based, human
Settings: Homo sapiens; SH-SY5Y cells, overnight (16-18 h) exposure; read-out: pSer396 Tau EC50
measured_quantity: pEC50
In textbook form, pEC50 equals minus log to base ten of the concentration in mol/L.

# query_smiles, measurement_target, pEC50
rows = [
    ("O=C(CN1CCCC1)Nc1cc2cc(-c3cnn4c3CN(CCF)CC4)ccc2cn1", "Tau phosphorylation at Ser396 (pSer396)", 6.18),
    ("O=C(CN1CCCC1)Nc1cc2cc(-c3cnn(C4CC4)c3)ccc2cn1", "Tau phosphorylation at Ser396 (pSer396)", 5.94),
    ("CC(C)CN1CCC(C(=O)Nc2cc3cc(-c4cn[nH]c4)ccc3cn2)CC1", "Tau phosphorylation at Ser396 (pSer396)", 7.31),
    ("Cn1cc(-c2ccc3cnc(NC(=O)C4CCN(CC5(C)COC5)CC4)cc3c2)cn1", "Tau phosphorylation at Ser396 (pSer396)", 6.38),
]

Recorded pEC50 (molecule `Cn1cc(-c2ccc3cnc(NC(=O)C4CCN(CC5(C)COC5)CC4)cc3c2)nn1` ): 6.70

// `Cn1cc(-c2ccc3cnc(NC(=O)CN4CCCC4)cc3c2)cn1` : pEC50 value = 6.44

The molecule `CCN(CC)CC(=O)Nc1cc2cc(-c3cnn(C)c3)ccc2cn1` showed pEC50 equal to 6.11

Input `CC(C)CN1CCC(C(=O)Nc2cc3cc(-c4cnn(C)c4CN4CCCCC4)ccc3cn2)CC1` . Output pEC50: 6.61

----------
Target: recombinant GSK3β kinase (Homo sapiens (Human))
Sequence (P49841 whole entry): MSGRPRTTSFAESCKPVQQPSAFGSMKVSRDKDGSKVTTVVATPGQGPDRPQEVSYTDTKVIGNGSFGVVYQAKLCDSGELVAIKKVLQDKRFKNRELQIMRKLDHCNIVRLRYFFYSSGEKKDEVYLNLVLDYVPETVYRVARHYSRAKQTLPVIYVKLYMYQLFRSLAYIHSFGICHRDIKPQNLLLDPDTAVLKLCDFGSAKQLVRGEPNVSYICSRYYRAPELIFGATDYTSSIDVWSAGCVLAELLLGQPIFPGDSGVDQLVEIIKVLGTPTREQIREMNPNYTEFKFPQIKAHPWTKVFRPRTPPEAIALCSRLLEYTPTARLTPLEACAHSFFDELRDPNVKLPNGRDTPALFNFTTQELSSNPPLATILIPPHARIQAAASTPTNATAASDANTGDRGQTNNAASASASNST
Experiment: GSK3β kinase assay (Ser/Thr 09 peptide Z-lyte FRET);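 also: kinase activity read as coumarin to fluorescein emission ratio, 11-point threefold dilutions from 10 µM to 0.0003 µM in duplicate, unphosphorylated and phosphorylated peptide as 0% and 100% controls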
Conditions: 46 μM ATP, 1 h room temperature
Below, each of the compounds is paired with its reported pEC50 value.
FYI, pEC50 means -log10 of a concentration in mol per litre.

Examples from the recorded data:
# compound, measured_quantity, data_value
rows = [
    ("Cn1cc(-c2ccc3cnc(NC(=O)C4CC5(C4)CN(CCF)C5)cc3c2)cn1", "pEC50", 7.72),
    ("Cn1cncc1-c1ccc2cnc(NC(=O)C3CCC(F)(F)CC3)cc2c1", "pEC50", 7.74),
    ("Cn1cc(-c2ccc3cnc(NC(=O)CN4CC5CC5C4)cc3c2)cn1 (stereo not shown)", "pEC50", 7.37),
]

Please look at the following compound next.
`O=C(Nc1cc2cc(-c3cnn4c3CN(CCF)CC4)ccc2cn1)C1CCNCC1` has a reported pEC50 of 6.91

----------
System: Tau phosphorylation at Ser396 (pSer396)
Assay: Tau phosphorylation assay (pSer396 ELISA / western blot) in SH-SY5Y cells;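 also: EC50 for reduction of Tau pSer396 in lysed cells, measured by colorimetric ELISA or chemiluminescent western blot, both using the same pSer396 antibody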
Type: cell-based, human
Conditions: Homo sapiens; SH-SY5Y cells, overnight (16-18 h) exposure; read-out: pSer396 Tau EC50
Reported log10 of EC50 values for a set of compounds
log10 EC50, nM

Study these solved cases before continuing.
# compound, log10 of EC50
records = [
    ("CC(C)N1CCN(CC(=O)Nc2cc3cc(-c4cnn(C)c4)ccc3cn2)CC1 [Compound 352]", 3.11),
    ("Cn1ncc(-c2ccc3cnc(NC(=O)C4CCC(F)(F)CC4)cc3c2)c1CN1CCC1 [Compound 298]", 3.14),
    ("Cn1cc(-c2ccc3cnc(NC(=O)C4(F)CCNCC4)cc3c2)cn1 [Compound 91]", 3.67),
    ("CC(C)CN1CCC(C(=O)Nc2cc3cc(-c4cncn4C)ccc3cn2)CC1 [Compound 554]", 1.98),
]

Lab book: log10 of EC50 of Cn1cncc1-c1ccc2cnc(NC(=O)C3CCN(CCC(F)(F)F)CC3)cc2c1 [Compound 262] noted as 2.24

According to the records, this compound [2H]C([2H])([2H])n1cc(-c2ccc3cnc(NC(=O)[C@H](C)N4CCCC4)cc3c2)cn1 [Compound 971] displays log10 of EC50 of 2.28

GET /value?item= CN(CC(=O)Nc1cc2cc(-c3cnn(C)c3)ccc2cn1)C1CCC1 [Compound 302] &field=log10 of EC50 returns 2.80

log10 of EC50 reading for Cn1cc(-c2ccc3cnc(NC(=O)C4CCN(C(=O)CN5CCCC5)CC4)cc3c2)cn1 [Compound 336] : 2.91

----------
Tested on: Wnt pathway (Sp5-Luc reporter, TCF/LEF binding sites) in SW480 colon carcinoma cells
Assay: Screening assay for Wnt activity: Sp5-Luc reporter gene assay;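 also: firefly luciferase luminescence read in stably transduced SW480 cells carrying the Sp5 promoter reporter with eight TCF/LEF sites, compounds given in 0.1% DMSO final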
Format: cell-based, human
Settings: Homo sapiens; Sp5-Luc reporter, SW480 cells, 36 to 48 hours
measured_quantity: pEC50
pEC50 (log units): -log10 of the concentration in mol/L.

# query_smiles, pEC50
measured = [
    ("CCN1CCC(C(=O)Nc2cc3cc(-c4cnn(C)c4)c(F)cc3cn2)CC1", 5.35),
    ("CC(C)CN1CCC[C@@H](C(=O)Nc2cc3cc(-c4cnn5c4CN(CCF)CC5)ccc3cn2)C1", 5.72),
    ("Cn1ncc(-c2ccc3cnc(NC(=O)C4CCN(C(=O)c5ccccc5)CC4)cc3c2)c1CN1CCCCC1", 6.15),
    ("CC(C)CN1CCC(C(=O)Nc2cc3cc(-c4cn(C)nn4)ccc3cn2)CC1", 6.44),
    ("CC(C)CN1CCC[C@H](C(=O)Nc2cc3cc(-c4cnn(C)c4)ccc3cn2)C1", 5.49),
]

The measured pEC50 associated with `CC(C)OCC(=O)Nc1cc2cc(-c3cncn3C)ccc2cn1` reads 5.47

// sample `Cc1nc(CN2CCC(C(=O)Nc3cc4cc(-c5cnn(C)c5)ccc4cn3)CC2)no1` , its pEC50 was 5.86

Briefly, pEC50 measured for `Cn1cc(-c2ccc3cnc(NC(=O)CN4CCC(F)CC4)cc3c2)cn1` : 5.15
